B1: Tyrosine-protein kinase Lck, residues 63 to 120; numbered along this chain, P06239 (parent)
chain: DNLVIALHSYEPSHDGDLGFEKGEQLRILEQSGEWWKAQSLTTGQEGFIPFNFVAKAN

Variants of: B1
Experiment: abundance fitness (aPCA) (normalised: wild type 0, dead -1); higher = more abundant; growth selection in yeast, the domain comes from the species named
Conditions: Homo sapiens
Kindly supply the reported abundance fitness values for the records listed here.
Give bare numbers.

// worked examples, abundance fitness included
D15C: -0.196
L26P: -0.909
Q31P: -0.235
D1A: -0.337
A6V: -0.556
L7D: -0.486

Hey, can you go through the list below and give me abundance fitness for every item?
1. L18W
2. I49F
3. G33V
4. L7I
5. E34N
6. S32W

[-0.978, -0.427, -0.881, -0.079, -0.203, -0.455]
